Attribution: paper PMC12207590

Kindly state MATE2 for each of the entries shown.
Biological target: MATE2K (Homo sapiens, UniProt Q86VL8)
Sequence (Q86VL8 1-566 isoform Q86VL8-3): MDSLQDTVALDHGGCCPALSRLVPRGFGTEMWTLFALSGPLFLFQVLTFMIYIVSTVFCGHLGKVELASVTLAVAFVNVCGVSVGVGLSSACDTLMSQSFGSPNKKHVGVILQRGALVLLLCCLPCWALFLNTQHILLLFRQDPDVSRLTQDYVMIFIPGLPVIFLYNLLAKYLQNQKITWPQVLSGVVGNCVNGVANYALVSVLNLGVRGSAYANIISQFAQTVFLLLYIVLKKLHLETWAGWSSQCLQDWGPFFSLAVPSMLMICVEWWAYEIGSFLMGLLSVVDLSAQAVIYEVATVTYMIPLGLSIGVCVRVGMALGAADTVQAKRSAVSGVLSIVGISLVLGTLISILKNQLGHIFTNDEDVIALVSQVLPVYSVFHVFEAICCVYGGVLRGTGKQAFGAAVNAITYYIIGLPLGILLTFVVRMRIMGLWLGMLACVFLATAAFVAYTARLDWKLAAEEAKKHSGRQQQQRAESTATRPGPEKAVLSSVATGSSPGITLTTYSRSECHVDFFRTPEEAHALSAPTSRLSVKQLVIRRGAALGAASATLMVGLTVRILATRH
Assay: Uptake ratio in MATE2K-overexpressing HEK293 cells vs empty vector (2.5 μM, 1 min, HPLC-MS/MS)
Format: cell-based
Conditions: uptake ratio MATE2K-overexpressing vs empty-vector HEK293 cells, 2.5 μM, 1 min; mean

Use these answered entries as a reference point.
compound	MATE2
CN(CCN1CCC(OC(=O)Nc2ccccc2-c2ccccc2)CC1)C(=O)c1ccc(CN2CCC(C(N)=O)CC2)cc1	1.17
CC(CN(C)C)CN1c2ccccc2CCc2ccccc21 (centres unmarked)	1.2
Cc1ncc(C[n+]2csc(CCOP(=O)(O)O)c2C)c(N)n1 [Thiamine monophosphate]	0.89

Hi, could you look up MATE2 for each item in my list?
1. OC(c1ccccc1)(c1ccccc1)C12CC[N+](CCOCc3ccccc3)(CC1)CC2
2. CN(C)CCc1c[nH]c2ccc(C[C@H]3COC(=O)N3)cc12 [Zolmitriptan (S), Zolmitriptan]
3. CC(C)(C)NCC(O)COc1nsnc1N1CCOCC1 (stereo in doubt) [Timolol (R)]
4. CN1[C@@H]2CC[C@H]1C[C@@H](OC(=O)c1c[nH]c3ccccc13)C2
5. CCc1nc(N)nc(N)c1-c1ccc(Cl)cc1

1.67
5.38
0.96
1.15
1.1

---

Molecular target: MATE1 (Homo sapiens, UniProt Q96FL8)
Sequence (Q96FL8 1-570): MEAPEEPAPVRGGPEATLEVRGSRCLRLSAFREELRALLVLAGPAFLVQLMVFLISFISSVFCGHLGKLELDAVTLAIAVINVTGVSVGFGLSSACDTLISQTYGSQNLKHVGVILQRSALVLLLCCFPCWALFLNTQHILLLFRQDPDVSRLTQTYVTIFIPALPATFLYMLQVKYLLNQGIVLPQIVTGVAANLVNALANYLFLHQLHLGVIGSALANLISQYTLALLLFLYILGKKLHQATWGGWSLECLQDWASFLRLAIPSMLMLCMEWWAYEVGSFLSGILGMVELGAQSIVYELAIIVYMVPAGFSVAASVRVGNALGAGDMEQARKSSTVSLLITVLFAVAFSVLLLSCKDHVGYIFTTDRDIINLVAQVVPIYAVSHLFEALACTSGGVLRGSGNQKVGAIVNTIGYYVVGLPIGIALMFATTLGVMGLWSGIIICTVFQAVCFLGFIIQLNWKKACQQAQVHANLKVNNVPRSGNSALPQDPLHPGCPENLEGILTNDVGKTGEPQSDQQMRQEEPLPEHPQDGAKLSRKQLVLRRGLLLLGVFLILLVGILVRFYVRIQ
Test: Uptake ratio in MATE1-overexpressing HEK293 cells vs empty vector (2.5 μM, 1 min, HPLC-MS/MS)
Assay type: cell-based
Details: mean ratio of uptake in MATE1-overexpressing HEK293 cells vs empty vector; 2.5 μM, 1 min
Where a SMILES comes first, the peptide text is derived from it.
For each entry below, report its MATE1 (uptake ratio) value.
Give bare numbers.

The examples below pair each entry with its known result.
compound	experimentalValue
COC(=O)[C@H](Cc1ccccc1)NC(=O)[C@@H](N)CC(=O)O [Aspartame] (HELM PEPTIDE1{D.F.[CO[*:1]]}$$$$V2.0)	1.26
CC1(C)S[C@@H]2[C@H](NC(=O)[C@H](N)c3ccc(O)cc3)C(=O)N2[C@H]1C(=O)O [Amoxicillin]	1.82
CCCS(=O)(=O)N[C@H]1C[C@@H](N(C)c2ncnc3[nH]ccc23)C1 [Abrocitinib]	1.09

Record MATE1 (uptake ratio) per entry; entries follow.
1. C[N+](C)(C)CC(=O)O [Betaine]
2. CC(C)(C)NCC(O)c1ccc(O)c(O)c1 (stereo not drawn) [Colterol]
3. C[C@@H]1O[C@@]2(CS1)CN1CCC2CC1 [Cevimeline]
4. CC[N+](CC)(CC)Cc1ccccc1 [Benzyltriethylammonium]

[0.8, 10.79, 1.59, 25.63]

Hi team, please reply with MATE1 (uptake ratio) for each item in this list.
1. CNCC[C@@H](Oc1ccccc1C)c1ccccc1 [Atomoxetine]
2. CCCC(=O)OC(CC(=O)[O-])C[N+](C)(C)C (stereo not drawn) [Butyrylcarnitine]

1.12
0.82

---

Target: MATE2K (Homo sapiens)
Experiment: Uptake ratio in MATE2K-overexpressing HEK293 cells vs empty vector (2.5 μM, 1 min, HPLC-MS/MS)
Assay type: cell-based
Conditions: mean ratio of uptake in MATE2K-overexpressing HEK293 cells vs empty vector; 2.5 μM, 1 min
Please go through the items and note down their MATE2 (uptake ratio).
Numbers only.

molecule	MATE2 (uptake ratio)
C[N+]12CCC(CC1)C(OC(=O)C(O)(c1ccccc1)c1ccccc1)C2 (centres unmarked)	1.79
C=CCN1C[C@H](C(=O)N(CCCN(C)C)C(=O)NCC)C[C@@H]2c3cccc4[nH]cc(c34)C[C@H]21	1.13
CCN1CCN(Cc2ccc(Nc3ncc(F)c(-c4cc(F)c5nc(C)n(C(C)C)c5c4)n3)nc2)CC1	1.01
CN1CCc2cccc3c2[C@H]1Cc1ccc(O)c(O)c1-3	1.02

// below: MATE2 (uptake ratio) requested for another molecule
So what's the measured MATE2 (uptake ratio) for this one? CC(C)(C)NCC(O)c1ccc(O)c(O)c1 (centres unmarked)
5.8

---

Target: MATE2K (Homo sapiens, UniProt Q86VL8)
Assay: Uptake ratio in MATE2K-overexpressing HEK293 cells vs empty vector (2.5 μM, 1 min, HPLC-MS/MS)
Format: cell-based
experimentalReadout: MATE2K ratio
Numbers only.

Consider the worked cases shown below.
compound	experimentalValue
COC(=O)[C@@H]1[C@H]2CC[C@@H](C[C@@H]1O)N2C [Methylecgonine]	1.36
CCCC[N+]1(C)[C@@H]2C[C@@H](OC(=O)[C@H](CO)c3ccccc3)C[C@H]1[C@@H]1O[C@@H]12 (some centres unmarked) [Butylscopolamine]	1.70
COc1cc2c(cc1OC)[C@@]13CCN4CC5=CCO[C@H]6CC(=O)N2[C@H]1[C@H]6[C@H]5C[C@H]43 [Brucine]	1.30
O=P1(NCCCl)OCCCN1CCCl (centres unmarked) [Ifosfamide]	1.17

Need MATE2K ratio for each of these compounds.
1. CCN1C[C@]2(COC)[C@H](O)C[C@H](OC)[C@@]34[C@@H]5C[C@@]6(O)[C@H](OC(=O)c7ccccc7)[C@@H]5[C@@](OC(C)=O)([C@@H]([C@H](OC)[C@H]23)[C@@H]14)[C@@H](O)[C@@H]6OC [Aconitine]
2. NCCc1c[nH]c2ccc(O)cc12 [Serotonin]
3. CC(=O)OC1CN2CCC1CC2 (centres unmarked) [Aceclidine]
4. CC(NC(C)(C)CO)C(=O)c1cccc(Cl)c1 (centres unmarked) [Hydroxybupropion]
5. CN(C)c1ccc2nc3ccc(=[N+](C)C)cc-3sc2c1 [Methylene blue]
6. CC1(C)C[C@@H]1C(=O)N/C(=C\CCCCSC[C@H](N)C(=O)O)C(=O)O [Cilastatin]
7. CC(Cc1ccc(O)cc1)NCC(O)c1cc(O)cc(O)c1 (centres unmarked) [Fenoterol]

[1.32, 2.26, 1.08, 1.51, 1.55, 0.96, 5.46]

---

Molecular target: MATE2K (Homo sapiens, UniProt Q86VL8)
Test: Uptake ratio in MATE2K-overexpressing HEK293 cells vs empty vector (2.5 μM, 1 min, HPLC-MS/MS)
Format: cell-based
experimentalReadout: MATE2K ratio
Numbers only.

Some solved cases for reference:
molecule	MATE2K ratio
O=C1CCC[C@@H]2[C@H]3CCCN4CCC[C@@H](CN12)[C@@H]34	1.27
C[N+](C)(C)C[C@H](O)CC(=O)[O-]	1.13
NCCCCCN	0.53
CC(N)Cc1cccc(C(F)(F)F)c1 (stereo not drawn) [Norfenfluramine (+), Norfenfluramine]	1.45
COc1ccc(CCN)cc1	1.23
CCCCCCN	1.08
CCOC(=O)[C@]1(c2ccccc2)CCC=C[C@H]1NC	1.42
NC12CC3CC(CC(C3)C1)C2	1.48

Parameters: items (list). Returns: MATE2K ratio for each item.
1. N=C(N)c1ccc2cc(OC(=O)c3ccc(N=C(N)N)cc3)ccc2c1
2. COc1cccc2c1C(=O)c1c(O)c3c(c(O)c1C2=O)C[C@@](O)(C(C)=O)C[C@@H]3O[C@H]1C[C@H](N)[C@H](O)[C@H](C)O1
3. Cc1nc2n(c(=O)c1CCN1CCC(c3noc4cc(F)ccc34)CC1)CCCC2
4. COc1cc2c(cc1OC)[C@H](C)NCC2
5. CCNC(C)Cc1ccc2c(c1)OCO2 (centres unmarked)

1: 1.64; 2: 1.01; 3: 1.37; 4: 1.46; 5: 1.39

For every item below, please supply its MATE2K ratio.
1. O=C1CC2(CCCC2)CC(=O)N1CCCCN1CCN(c2ncccn2)CC1
2. COc1ccc2[nH]c3c(c2c1)CCNC3
3. CNCCc1ccc(O)cc1
4. NCCc1c[nH]c2c(O)cc(O)cc12 [5,7-Dihydroxytryptamine]
5. CN(C)C(=O)Oc1cccc([N+](C)(C)C)c1
6. N=C(N)NC(=N)Nc1ccc(Cl)cc1 [1-(4-Chlorophenyl)biguanide]
7. CCN(CC)CCc1c[nH]c2ccccc12
8. Oc1ccc2c3c1O[C@H]1[C@H](O)CC[C@@]4(O)[C@@H](C2)N(CC2CC2)CC[C@]314 [6-beta-Naltrexol]

1: 1.36; 2: 1.21; 3: 1.39; 4: 0.84; 5: 5.31; 6: 3.82; 7: 1.30; 8: 1.20

# batch: return MATE2K ratio for each of the 2 molecules below
1. Cn1c(=O)[nH]c2nc[nH]c2c1=O
2. N=C(N)NCCC[C@H](NC(=O)c1ccc2ccccc2c1O)C(=O)N1CCC[C@H]1C(N)=O

[0.96, 1.41]
